# Experimental target: T1, IL-18 receptor (IL-18Rα/IL-18Rβ) overexpressed on HEK-Blue IL-18 cells (Homo sapiens (Human), UniProt Q13478 19-541; O95256 20-599)
# T1 sequence 1: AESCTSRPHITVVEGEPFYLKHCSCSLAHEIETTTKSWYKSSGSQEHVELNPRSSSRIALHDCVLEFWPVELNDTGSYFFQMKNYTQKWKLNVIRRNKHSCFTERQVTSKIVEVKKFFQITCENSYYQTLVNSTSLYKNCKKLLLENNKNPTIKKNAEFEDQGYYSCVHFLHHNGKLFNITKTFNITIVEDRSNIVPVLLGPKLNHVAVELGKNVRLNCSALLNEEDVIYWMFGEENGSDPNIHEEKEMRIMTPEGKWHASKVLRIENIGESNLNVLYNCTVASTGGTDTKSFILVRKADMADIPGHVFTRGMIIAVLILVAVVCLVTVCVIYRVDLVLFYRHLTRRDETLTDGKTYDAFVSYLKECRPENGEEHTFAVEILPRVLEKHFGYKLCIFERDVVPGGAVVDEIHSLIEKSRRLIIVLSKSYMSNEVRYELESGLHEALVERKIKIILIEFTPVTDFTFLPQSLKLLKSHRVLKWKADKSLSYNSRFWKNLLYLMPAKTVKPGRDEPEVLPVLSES
# T1 sequence 2: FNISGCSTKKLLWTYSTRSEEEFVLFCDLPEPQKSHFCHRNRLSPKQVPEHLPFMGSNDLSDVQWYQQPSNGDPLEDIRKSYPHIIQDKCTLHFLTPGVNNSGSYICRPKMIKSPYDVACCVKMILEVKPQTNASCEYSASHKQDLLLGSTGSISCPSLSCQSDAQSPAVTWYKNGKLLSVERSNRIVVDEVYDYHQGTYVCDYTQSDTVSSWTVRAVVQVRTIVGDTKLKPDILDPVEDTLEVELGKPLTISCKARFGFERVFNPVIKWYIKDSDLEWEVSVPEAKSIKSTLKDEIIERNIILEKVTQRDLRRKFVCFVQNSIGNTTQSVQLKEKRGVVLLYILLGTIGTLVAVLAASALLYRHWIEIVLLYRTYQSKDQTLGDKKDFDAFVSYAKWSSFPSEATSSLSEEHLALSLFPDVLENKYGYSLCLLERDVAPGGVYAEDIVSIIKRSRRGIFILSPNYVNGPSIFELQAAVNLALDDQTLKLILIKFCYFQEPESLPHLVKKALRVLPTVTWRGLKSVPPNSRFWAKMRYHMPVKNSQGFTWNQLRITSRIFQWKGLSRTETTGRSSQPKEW
# Measurement description: cell-based or functional assay
Test readout: HEK-Blue IL-18: Abs 405 (Abs)
Answers are plain numbers, in Abs.

[
  {
    "Binder": "DGL300 (bispecific antibody, V domains shown) V domain 1: QVQLQESGGGLVQPGGSLRLSCAASGSIFSTKGLGWYRQAPGEQRELVAGISSAGWIFYTQSVKGRFTMSRDNAKNTVYLQMNSLKPEDTAVYYCNSAQSGVPLRSWGQGTQVTVAS V domain 2: QVQLVESGGGLVLPGESLRLSCVVSGTIDNINSMGWYRQAPGKQRELVAYITKLGSANYADSVEGRFTISRDNAKKTVHLQMNSLKPEDTAVYYCHANERGRITWAQGTQVTVSS",
    "Test readout": "HEK-Blue IL-18: Abs 405",
    "Units of measure": "Abs",
    "Measured": 1.07
  }
]

Give HEK-Blue IL-18: Abs 405 for each of the items listed below.
1. DGL298 (bispecific antibody, V domains shown) V domain 1: QVQLVESGGGLVQAGGSLRLSCAASGRTFSSYDMGWFRQAPGKEREFVAALRWSGGSTSYADSVKGRFTISRDNAKNTVYLHMNSLKPEDTAVYYCAATLETDSGTYWADYWGQGTQVTVSS V domain 2: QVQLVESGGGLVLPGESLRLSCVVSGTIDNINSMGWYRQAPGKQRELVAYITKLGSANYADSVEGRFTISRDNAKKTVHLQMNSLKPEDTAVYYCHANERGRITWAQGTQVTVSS
2. DGL303 (bispecific antibody, V domains shown) V domain 1: QVQLQESGGGLVQPGGSLRLSCAASGFIFSNWYMRWVRQAPGEGLEWVSSINSGGDDTDYADSVKGRFTISRDNAKGTLYLQMHSLKPEDTALYYCERGADRVRGQGTQVTVSS V domain 2: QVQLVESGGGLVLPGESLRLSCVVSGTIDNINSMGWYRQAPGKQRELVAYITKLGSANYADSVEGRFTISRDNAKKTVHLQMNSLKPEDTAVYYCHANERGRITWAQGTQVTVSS

Data returned:
1: 0.97; 2: 1.02
